Value source: the nanobody polyreactivity screen of Harvey et al. (2022)

assay: yeast display, Sf9 membrane polyspecificity reagent, FACS + sequencing; frameworks hold sequencing errors

ORDERED RESIDUES	polyreactivity (PSR sort gate)
QVQLVESGGGLVQAGGSLRLICAASGYTFLDYARGWYRQAPGKERELVASITSSGGSTYYADSVKGRFTISRDNAKNTVFLQMMSLIPEDTAVYYCASDGCIYYYFTLRYGYWGQGTQVTVSS	low polyreactivity
QVQLEESGGGLVQAGGSLRLSCAASGSIFRYNAMGWYRQAPGKERELVAAITSGDSTYYADSVKGRFTISRDNAKNTVYLQMNSLKPEDTAVYYCAADLRYIYWSYYYWGQGTQVTVSS	low polyreactivity
QVQLVESGGGLVQAGGSLRLSCAASGYIFTRNAMGWYRQAPGKERELVATISSRGGRTYYADSVKGRFTISRDNAKNTVYLQMNSLKPEDTAVYYCAATPWYRTRTYDYWGQGTQVTVSS	high polyreactivity
QLQLVESGGGLVQAGGSLRLSCAASGSIFQYNAMGLYRQAPGKRELVAALNRSGGSTYYGDSVKGRFTISRDNAKNTVDLQMNSLKPEDTAVYYCAAGVFYFLKYTVSFINYYWRQGTQVTVSS	high polyreactivity
QVQLVESGGGLVQAGGSLRLSCAASGRTFWVYAMGWYRQAPGKERELVAAINNGGSTTYADSVKGRFTISRDNAKNTVYLQMNSLKPEDTAVYYCAADSVKQVRYGNVGHDYWGQGTQVTVSS	low polyreactivity

----------
experiment: yeast display, Sf9 membrane polyspecificity reagent, FACS + sequencing; frameworks hold sequencing errors

ORDERED RESIDUES	polyreactivity (PSR sort gate)
QVHLVESGGGLVQAGGSLRLSCAASGSIYVNTMGWYRQAPGKDRELVAGISRSTGRTYYADSVKGRFTISRDNAKNTVYLQMNSLKPEDTAVYYCNTVPWRRWGYDYWGQGTQVTVSS	high polyreactivity
QVQLVESGGGLVQAGGSLRLSCAASGSTFYGYAMGWYRQAPGKERELVAVISRSGGGTSYADSVKGRFTISRDNAKNTVYLQMNSLKPEDTAVYYCNAAKYLYRHGFMSAGDMYYWGQGTQVTVSS	high polyreactivity
QVQLVESGGGLVQAGGSLRLSCAASGRIFLFYTMGWYRQAPGKERELVAGITFSGGSTYYADSVKGRFTISRDNAKNTVYLQMNSLKPEDTAVYYCNARRWWQSYDYWGQGTQVTVSS	high polyreactivity
QVQLVESGGGLVQAGGSLRLSCAASGIIFPYYAMGWYRQAPGKERELVAGISSSGGITYADSVKGRFTISRDNAKNTVYLQMNSLKPEDTAVYYCNAEYQWLEYDFWGQGTQVTVSS	low polyreactivity
QFQLVESGVGLVQAGGSLRLSCAASVRIFITNAMGWYRQAPGKERELVAAISGGSTYYGDSVKGRFTISRDNAKNTVYLQMNSLKPEDTAVYYCAVDNYYTPWYPYLGYDSWGQGTQVTVSS	low polyreactivity

----------
test: yeast display, Sf9 membrane polyspecificity reagent, FACS + sequencing; frameworks hold sequencing errors

ORDERED RESIDUES	polyreactivity (PSR sort gate)
QVQLVESGGGLVQAGGSLRLSCAASGRTFWRYAMGWYRQAPGKERELVAAISVSGGTTYYADSVKGRFTISRDNAKNTVYLQMNSLKPEDTAVYYCAARYGSIYSILYYGFDYWGQGTQVTVSS	high polyreactivity
QVQLVESGGGLVQAGGSLRLSCAASGSIFEYYAMGWYRQAPGKERELVAAITWSGGSTYYADSVKGRFTISRDNAKNTVYLQMNSLKPEDTAVYYCAKGYYVYGIFHRFGYYWGQGTQVTVSS	high polyreactivity
